System: SW-620
Test: NCI tumour cell line growth inhibition, 48 h
The source made the active and inactive calls. Cut-off read from the data, not from the text of the source: active = GI50 up to about 1.1 µM and inactive = higher. Where a SMILES comes first, the peptide text is derived from it. The star is where a group is joined. Boc = CC(C)(C)OC(=O)*
RECORDED_METRIC: GI50

>>> result("CC(=O)O[C@H]1CC[C@@]2(C)C(=CC[C@@H]3[C@@H]2CC[C@]2(C)c4c(C)n[nH]c4C[C@@H]32)C1")
"16.9 µM (inactive)"
>>> result("C[n+]1cn(-c2nc3ccccc3nc2[N-]S(=O)(=O)c2ccccc2)c2ccccc21")
"> 100 µM (inactive)"
>>> result("OC/C=C/[C@H](OCc1ccccc1)[C@H](/C=C/CO)OCc1ccccc1")
"39.9 µM (inactive)"
>>> result("CC(NC(=O)C1CCCN1C(=O)CNC(=O)OC(C)(C)C)C(=O)O (stereo not drawn) (Boc-Gly-Pro-Ala-OH; configuration not given here)")
"> 100 µM (inactive)"
>>> result("C[Si](C)(C)c1ccc(CC2(Cc3ccc([Si](C)(C)C)cc3)CCNC2)cc1")
"1.86 µM (inactive)"
>>> result("c1ccc2c3c([nH]c2c1)C1c2[nH]c4ccccc4c2CCN1CC3")
"16.2 µM (inactive)"
>>> result("CC(=O)N1C(OC(C)C)CC(C)N1c1ccccc1 (configuration not stated)")
"> 10 µM (inactive)"

* * *

Test system: NCI-H23
Assay: NCI tumour cell line growth inhibition, 48 h
The source made the active and inactive calls. No stated cut-off is given here; in the data, active = GI50 up to about 1.1 µM and inactive = higher.
RECORDED_METRIC: GI50

>>> result("Oc1ccccc1/C=N/c1ccc(-c2nc3ccccc3s2)cc1")
"31.8 µM (inactive)"
>>> result("[O-]c1c2c(nn1-c1ccc(F)cc1)c1ccccc1c[n+]2Cc1ccccc1")
"16.3 µM (inactive)"
>>> result("CCCCCCCCCCCCCCCCCCOCC(COP(=O)([O-])OCC[N+](C)(C)C)OC (stereo not drawn)")
"41.6 µM (inactive)"
>>> result("CN(CC(=O)O)Cc1oc(CO)cc(=O)c1O")
"> 100 µM (inactive)"
>>> result("COc1cc(Br)c(CC2NCCc3cc(OC)c(OC)cc32)cc1OC (stereo not drawn)")
"20.9 µM (inactive)"
>>> result("Nc1ccc(Cn2ccc3c4c(N)nc(N)nc4ccc32)cc1")
"< 0.01 µM (active)"
>>> result("C=C1CC(Cn2cc(C)c(=O)[nH]c2=O)(c2ccc(-c3ccccc3)cc2)OC1=O (stereo not drawn)")
"1.74 µM (inactive)"
>>> result("CC(C)(C)OC(=O)NC(Cc1ccc(O)cn1)C(N)=O (stereo not drawn)")
"> 100 µM (inactive)"
>>> result("O=C1CC(CC(O)[C@@H]2CCCC[C@@H]2O)CC(=O)N1c1ccccc1 (stereo partly drawn)")
"> 100 µM (inactive)"
>>> result("CC[n+]1c(-c2ccccc2)c2cc(N)ccc2c2ccc(N)cc21")
"1.31 µM (inactive)"
>>> result("CCc1c(O)cc(=O)oc1-c1ccc(OC)c(OC)c1")
"> 100 µM (inactive)"
>>> result("O=C(Nc1ccccc1-c1n[nH]c(S)nc1=O)C(F)(F)F")
"> 100 µM (inactive)"
>>> result("ON[C@H]1C[C@@H](n2cnc3c(NC4CC4)ncnc32)[C@H](O)[C@@H]1O")
"> 100 µM (inactive)"

All figures here come from ChEMBL document CHEMBL1201862.
